# reported concentration at 4 h; entries follow
- test.details: Mouse Fast PK/BBB: plasma and brain concentration
- Type: in vivo, Male C57bl/6j mice
- assay.conditions: male, C57bl/6j, mouse, plasma; mice, dose 20 mg/kg oral, 4 hr; read-out: Plasma Mean Conc. ± Std. Dev
# output: bare number, implied unit ng/mL

COc1ccc(C(c2ccc(OC)cc2)c2ccc3nc(C4CCC4)n(C4CCN(S(=O)(=O)C(F)(F)F)CC4)c3c2)cc1 ... 1610
CCc1nc2ccc(C(c3ccc(Cl)cc3)c3ccc(Cl)cc3)cc2n1CC1CCN(S(=O)(=O)C(F)(F)F)CC1 ... 785
O=S(=O)(N1CCC(Cn2c(C3CC3)nc3ccc(C(c4ccc(Cl)cc4)c4ccc(Cl)cc4)cc32)CC1)C(F)(F)F ... 247

Please examine the following record next.
GET /values?readout=concentration at 4 h&item= O=C(O)c1ccc(S(=O)(=O)N2CCC(n3c(C4CC4)nc4ccc(C(c5ccc(Cl)cc5)c5ccc(Cl)cc5)cc43)CC2)cc1
27.7

====

Form field: pEC50 (one value per entry).
- test.target: Human CB1R (Cannabinoid receptor 1) (Homo sapiens, UniProt P21554)
- Sequence (P21554 whole entry): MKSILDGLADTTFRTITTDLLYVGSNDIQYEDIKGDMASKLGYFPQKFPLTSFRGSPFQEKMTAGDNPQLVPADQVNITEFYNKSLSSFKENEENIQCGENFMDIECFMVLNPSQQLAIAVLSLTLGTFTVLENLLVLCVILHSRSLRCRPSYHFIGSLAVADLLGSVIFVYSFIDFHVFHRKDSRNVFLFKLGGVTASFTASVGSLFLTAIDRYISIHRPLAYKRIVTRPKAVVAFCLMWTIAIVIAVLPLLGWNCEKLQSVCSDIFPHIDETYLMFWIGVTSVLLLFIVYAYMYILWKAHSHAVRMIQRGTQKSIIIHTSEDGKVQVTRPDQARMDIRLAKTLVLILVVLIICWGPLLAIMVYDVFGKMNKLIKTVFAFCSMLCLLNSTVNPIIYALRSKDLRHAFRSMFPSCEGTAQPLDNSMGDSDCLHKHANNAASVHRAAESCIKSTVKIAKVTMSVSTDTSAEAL
- test.details: CB-1 in vitro cAMP (HTRF) assay
- Assay type: cell-based
- assay.conditions: HEK cells, cAMP HTRF, 250 nM forskolin; mean where tested more than once; read-out: CB1 HEK_cAMP EC50
To interpret pEC50, take it as minus log10 of a concentration measured in moles per litre.

O=C(O)c1cccc(NC2CCC(n3c(C4CC4)nc4ccc(C(c5ccc(Cl)cc5)c5ccc(Cl)cc5)cc43)CC2)c1 (stereo not drawn) ... 6.98

Name the reported pEC50 value associated with the compound O=C(NCCCO)c1cccc(S(=O)(=O)N2CCC(n3c(C4CC4)nc4ccc(C(c5ccc(Cl)cc5)c5ccc(Cl)cc5)cc43)CC2)c1
7.68

Sample O=C(O)[C@H]1CC[C@@H](n2c(C3CC3)nc3ccc(C(c4ccc(Cl)cc4)c4ccc(Cl)cc4)cc32)CC1 — what was its pEC50?
5.05

====

Listing: EC50 of selected compounds
- test.target: Human CB2R (Cannabinoid receptor 2) (Homo sapiens, UniProt P34972)
- Sequence (P34972 whole entry): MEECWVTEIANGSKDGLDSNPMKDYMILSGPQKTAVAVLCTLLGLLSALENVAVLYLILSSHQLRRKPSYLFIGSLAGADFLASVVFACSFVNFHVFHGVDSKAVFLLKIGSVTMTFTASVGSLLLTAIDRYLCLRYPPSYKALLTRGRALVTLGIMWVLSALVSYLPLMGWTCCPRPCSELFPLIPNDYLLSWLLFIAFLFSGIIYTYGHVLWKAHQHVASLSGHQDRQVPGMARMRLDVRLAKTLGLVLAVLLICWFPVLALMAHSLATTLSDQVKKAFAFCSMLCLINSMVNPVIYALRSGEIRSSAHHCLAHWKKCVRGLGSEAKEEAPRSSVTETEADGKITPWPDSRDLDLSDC
- test.details: CB-2 in vitro cAMP (HTRF) assay
- assay.conditions: HEK cells, cAMP HTRF, 250 nM forskolin; mean where tested more than once; read-out: CB2 HEK_cAMP EC50
The answer is to be given in µM; state only the numeric part.

Look over these answered cases.
CCOC(=O)COc1ccc(Cn2c(C3CC3)nc3ccc(C(c4ccc(Cl)cc4)c4ccc(Cl)cc4)cc32)cc1 ... 4.75
O=S(=O)(N1CCC(Cn2c(C3CC3)nc3ccc(C(c4ccc(Cl)cc4)c4ccc(Cl)cc4)cc32)CC1)C(F)(F)F ... 3.86
O=C(O)c1ccc(-c2cccc(CCn3c(C4CC4)nc4ccc(C(c5ccc(Cl)cc5)c5ccc(Cl)cc5)cc43)c2)s1 ... 3.88
NC(=O)COc1ccc(Cn2c(C3CC3)nc3ccc(C(c4ccc(Cl)cc4)c4ccc(Cl)cc4)cc32)cc1 ... 2.93
NC(=O)c1ccc(C(=O)N2CCC(n3c(C4CC4)nc4ccc(C(c5ccc(Cl)cc5)c5ccc(Cl)cc5)cc43)CC2)cc1 ... 1.25

Look up EC50 for this compound: NC(=O)COc1ccc(S(=O)(=O)N2CCC(n3c(C4CC4)nc4ccc(C(c5ccc(Cl)cc5)c5ccc(Cl)cc5)cc43)CC2)cc1
1.71

Consider the compound shown here: FC(F)(F)c1ccc(CCn2c(C3CC3)nc3ccc(C(c4ccc(Cl)cc4)c4ccc(Cl)cc4)cc32)cc1 What is its recorded EC50?
5.2

EC50 for O=C(O)c1cncc(CN2CCC(n3c(C4CC4)nc4ccc(C(c5ccc(Cl)cc5)c5ccc(Cl)cc5)cc43)CC2)c1 ?
7.5

====

- test.details: Chronic DIO Mouse: plasma and brain concentrations
- Format: in vivo
- assay.conditions: brain, oral, DIO mice, 1 mg/kg daily, 2 Hours Post Dose, Day 25, read-out: Brain Concentration (Std Dev)
attribute.measured: concentration at 2 h (ng/g)
Write the value in ng/g as a bare number.

Look up concentration at 2 h for this compound: O=C(O)c1cccc(CN2CCC(n3c(C4CC4)nc4ccc(C(c5ccc(Cl)cc5)c5ccc(Cl)cc5)cc43)CC2)c1 [Example 148]
18.2

====

- test.target: Human CB2R (Cannabinoid receptor 2) (Homo sapiens, UniProt P34972)
- test.details: CB-2 in vitro cAMP (HTRF) assay
- Format: cell-based
- assay.conditions: HEK cells, cAMP HTRF, 250 nM forskolin; mean where tested more than once; read-out: CB2 HEK_cAMP EC50
- Description: CB1 and CB2 receptors are Gi-coupled GPCR. Activation of CB1 and CB2 receptors results in a decrease in cAMP production. An inverse agonist of the CB1 or CB2 receptor results in the opposite effect, an increase of cAMP production. The principle of this assay is based on HTRF® technology (Homogeneous Time-Resolved Fluorescence). […] The tracer binding is quantified by a Mab anti-cAMP labeled with Eu3+TBP-NHS Cryptate (supplied as part of the assay kit). […]
Below is a list of entries, each paired with its recorded log10(EC50) value.
Could you please treat all values as log10 of EC50 in µM?

CCNC(=O)N1CCC(n2c(C3CC3)nc3ccc(C(c4ccc(Cl)cc4)c4ccc(Cl)cc4)cc32)CC1 ... 0.72

// returns reported log10(EC50) for input COc1cc(S(=O)(=O)N2CCC(n3c(C4CC4)nc4ccc(C(c5ccc(Cl)cc5)c5ccc(Cl)cc5)cc43)CC2)ccc1C(=O)O
-0.14

// returns reported log10(EC50) for input O=C(NC1CCCC1)N1CCC(n2c(C3CC3)nc3ccc(C(c4ccc(Cl)cc4)c4ccc(Cl)cc4)cc32)CC1
0.73

====

- test.target: Human CB2R (Cannabinoid receptor 2) (Homo sapiens, UniProt P34972)
- test.details: CB-2 in vitro cAMP (HTRF) assay
- assay.conditions: HEK cells, cAMP HTRF, 250 nM forskolin; mean where tested more than once; read-out: CB2 HEK_cAMP EC50
EC50 for assorted compounds

COC(=O)c1cc(OCCn2c(C3CC3)nc3ccc(C(c4ccc(Cl)cc4)c4ccc(Cl)cc4)cc32)cc(C(F)(F)F)c1 ... > 10 µM
O=C(O)Cc1cccc(N2CCC(n3c(C4CC4)nc4ccc(C(c5ccc(Cl)cc5)c5ccc(Cl)cc5)cc43)CC2)c1 ... 5.8 µM
CCOC(=O)N1CCC(n2c(N(C)C)nc3ccc(C(c4ccc(Cl)cc4)c4nccs4)cc32)CC1 (centres unmarked) ... > 10 µM
CC(Cc1ccc(Cl)cc1)n1c(C(F)F)nc2ccc(C(c3ccc(Cl)cc3)c3nccs3)cc21 (centres unmarked) ... > 10 µM
CC(C)(C)c1csc(C(c2ccc(Cl)cc2)c2ccc3ncn(Cc4ccc(Cl)cc4)c3c2)n1 (centres unmarked) ... > 10 µM
Clc1ccc(C(c2ccc3ncn(CCc4cccc(Cl)c4)c3c2)c2nccs2)cc1 (centres unmarked) ... > 10 µM
Oc1ccc(-n2c(C3CC3)nc3ccc(C(c4ccc(Cl)cc4)c4ccc(Cl)cc4)cc32)cc1 ... > 10 µM
CC(C)c1nc2ccc(C(c3ccc(Cl)cc3)c3nccs3)cc2n1C1CCN(S(=O)(=O)C(F)(F)F)CC1 (centres unmarked) ... > 10 µM

For the compound NC(=O)c1cncc(CN2CCC(n3c(C4CC4)nc4ccc(C(c5ccc(Cl)cc5)c5ccc(Cl)cc5)cc43)CC2)c1 , what EC50 is on record?
7.97 µM

Consider the compound shown here: CC(c1ccc(Cl)cc1)n1c(C2CC2)nc2ccc(C(c3ccc(Cl)cc3)c3nccs3)cc21 (centres unmarked) What is its recorded EC50?
> 10 µM

Please report the recorded EC50 for CCOC(=O)N1CCC(n2c(C3CN(C(=O)OC(C)(C)C)C3)nc3ccc(C(c4ccc(Cl)cc4)c4nccs4)cc32)CC1 (centres unmarked) .
> 10 µM

====

- test.target: Human CB2R (Cannabinoid receptor 2) (Homo sapiens)
- test.details: CB-2 in vitro cAMP (HTRF) assay
- assay.conditions: HEK cells, cAMP HTRF, 250 nM forskolin; mean where tested more than once; read-out: CB2 HEK_cAMP EC50
- Text: CB1 and CB2 receptors are Gi-coupled GPCR. Activation of CB1 and CB2 receptors results in a decrease in cAMP production. An inverse agonist of the CB1 or CB2 receptor results in the opposite effect, an increase of cAMP production. The principle of this assay is based on HTRF® technology (Homogeneous Time-Resolved Fluorescence). […] The tracer binding is quantified by a Mab anti-cAMP labeled with Eu3+TBP-NHS Cryptate (supplied as part of the assay kit). […]
attribute.measured: pEC50
Recall that pEC50 is obtained by taking minus log10 of the concentration measured in molar.

O=C(O)c1cc(F)cc(CN2CCC(n3c(C4CC4)nc4ccc(C(c5ccc(Cl)cc5)c5ccc(Cl)cc5)cc43)CC2)c1 [Example 89] ... 5.10

Which pEC50 reading was recorded for the compound O=C(O)Cc1ccc(N2CCC(n3c(C4CC4)nc4ccc(C(c5ccc(Cl)cc5)c5ccc(Cl)cc5)cc43)CC2)cc1 [Example 157] ?
5.47

Return reported pEC50; argument: COc1ccc(S(=O)(=O)N2CCC(n3c(C4CC4)nc4ccc(C(c5ccc(Cl)cc5)c5ccc(Cl)cc5)cc43)CC2)cc1C(=O)O [Example 211]
4.99

Look at this compound and give its reported pEC50. Clc1ccc(CCn2c(C3CC3)nc3ccc(C(c4ccc(Cl)cc4)c4nccs4)cc32)cc1 (stereo not shown) [Example 338]
5.40
